Quick reference for fold change (potency relative to reference compound) among some compounds
# procedure-summary: Antianaphylactic activity in rat mast cells assessed as inhibition of DNP-ovalbumin-induced histamine release after 15 mins by superfusion assay relative to 4-oxo-N-(5-tetrazolyl)-4H-l-benzopyran-2-carboxamide
# Format: functional, Mast cell

Example results:
Problem: Give me measured fold change (potency relative to reference compound), please, for this compound: NC(=O)c1cc(=O)c2cc(N)ccc2o1
Solution: <0.005

Problem: Provide only the value of recorded fold change (potency relative to reference compound) for O=C(O)c1ccc2occc(=O)c2c1
Solution: <0.005

Problem: Tell me its fold change (potency relative to reference compound) given CCOC(=O)c1cc(=O)c2cc(NC(=O)Cc3nnn[nH]3)ccc2o1 as the entry.
Solution: 0.005

Problem: Annotate the compound CNc1c(C(=O)Nc2nnn[nH]2)oc2ccccc2c1=O with its measured fold change (potency relative to reference compound).
Solution: 0.04

Problem: Please report fold change (potency relative to reference compound) for the following compound: CN(C(=O)c1cc(=O)c2ccccc2o1)c1nnn[nH]1
Solution: <0.005

Continuing:
Problem: State, in one line, measured fold change (potency relative to reference compound) of O=C(Nc1nnn[nH]1)c1oc2ccccc2c(=O)c1NCCO
Solution: 0.18

Problem: Dear colleague, please send me the reported fold change (potency relative to reference compound) for O=C(Nc1nnn[nH]1)c1coc(=O)c2ccccc12 when you can.
Solution: <0.005

Problem: Supply measured fold change (potency relative to reference compound) of CCOC(=O)C(=O)Nc1ccc2oc(C(=O)OCC)cc(=O)c2c1 in your reply.
Solution: 0.005

Problem: Given the compound Cc1ccc2oc(C(=O)Nc3nnn[nH]3)cc(=O)c2c1 , write its reported fold change (potency relative to reference compound).
Solution: 1.2

Problem: Please look at this compound and report its fold change (potency relative to reference compound): O=C(Nc1nnn[nH]1)c1cc2ccccc2c(=O)o1
Solution: <0.005

Problem: Dear colleague, please send me the reported fold change (potency relative to reference compound) for O=C(Nc1nnn[nH]1)c1cc(=O)c2ccc(O)cc2o1 when you can.
Solution: 0.77

Problem: Quote fold change (potency relative to reference compound) reported for O=c1c(/C=N/O)coc2ccccc12 please.
Solution: 0.0006

Problem: Tell me measured fold change (potency relative to reference compound) for O=C(Nc1nnn[nH]1)c1oc2ccccc2c(=O)c1N1CCOCC1 please.
Solution: <0.005

Problem: Give recorded fold change (potency relative to reference compound). O=C(Nc1nccs1)c1cc(=O)c2ccccc2o1
Solution: <0.005

Problem: Give the value of fold change (potency relative to reference compound) reported for the following: O=C([O-])c1cc(=O)c2c(OCC(O)COc3cccc4oc(C(=O)[O-])cc(=O)c34)cccc2o1.[Na+].[Na+] [CROMOLYN SODIUM]
Solution: 0.02

* * *

// fold change (potency relative to reference compound) lookup, one value per entry
# procedure-summary: Antianaphylactic activity in rat mast cells assessed as inhibition of DNP-ovalbumin-induced histamine release after 15 mins by superfusion assay relative to 4-oxo-N-(5-tetrazolyl)-4H-l-benzopyran-2-carboxamide
# Type: functional, Mast cell
Lab note: jot the number down without any unit.

Problem: Identify measured fold change (potency relative to reference compound) corresponding to O=C(Nc1nc[nH]n1)c1cc(=O)c2ccccc2o1
Solution: 0.002

Problem: Item O=C(Nc1nnn[nH]1)c1cc(=O)c2cc(-c3nnn[nH]3)ccc2o1 : provide fold change (potency relative to reference compound)
Solution: 0.85

Now, please, on to the next compound.
Problem: # return recorded fold change (potency relative to reference compound) for entry O=C(Nc1nnn[nH]1)c1cccc2c(=O)c3ccccc3[nH]c12
Solution: 0.14
